Experiment: Clearance in female Balb/c nude mouse at 1 mg/kg, iv
Assay type: ADME, organism-based
Settings: in vivo
MEASUREMENT NAME: clearance (mL/min/kg)
Express your answer in mL/min/kg, writing the number without its unit.

Item CN1C[C@@H](F)CCN(C)[C@H]2CC[C@@H](C2)Nc2ncc(C(F)(F)F)c(n2)-c2c[nH]c3c(P(C)(C)=O)c(ccc23)C1=O has what recorded clearance?
55.3

Which clearance value belongs to CN1CCCCN(C)[C@H]2CC[C@@H](C2)Nc2ncc(C(F)(F)F)c(n2)-c2c[nH]c3c(P(C)(C)=O)c(ccc23)C1=O ?
62.5

Look at this compound and give its reported clearance. CP(C)(=O)c1c2ccc3c(c[nH]c13)-c1nc(ncc1C(F)(F)F)N[C@H]1CC[C@@H](C1)NCCCCNC2=O
49.3

Item CN1CCOCCN(C)[C@H]2CC[C@@H](C2)Nc2ncc(C(F)(F)F)c(n2)-c2c[nH]c3c(P(C)(C)=O)c(ccc23)C1=O has what recorded clearance?
41.3
